- Experimental system: TRAAK/EK-1 M3-C (Mus musculus, UniProt O88454+P97438, A173T/A231F/D223G/E202D/F190V/F242V/G166T/G224S/G226I/H162N/I179F/I208V/K200A/L167K/L171I/L175I/L177I/L182V/L186A/L235V/M195I/N228Y/N256D/P164S/P165Q/P221A/P230D/Q227E/Q233K/S170I/S193K/S197G/S229L/S249A/T187L/T189A/T225D/T252S/T253M/V168I/V174I/V191I/V209I/V214I/Y194H)
- Construct: Trp161 (TRAAK/EK-1 M3-C); chimera built by Gibson assembly
- Sequence (O88454+P97438 fused with the stated changes): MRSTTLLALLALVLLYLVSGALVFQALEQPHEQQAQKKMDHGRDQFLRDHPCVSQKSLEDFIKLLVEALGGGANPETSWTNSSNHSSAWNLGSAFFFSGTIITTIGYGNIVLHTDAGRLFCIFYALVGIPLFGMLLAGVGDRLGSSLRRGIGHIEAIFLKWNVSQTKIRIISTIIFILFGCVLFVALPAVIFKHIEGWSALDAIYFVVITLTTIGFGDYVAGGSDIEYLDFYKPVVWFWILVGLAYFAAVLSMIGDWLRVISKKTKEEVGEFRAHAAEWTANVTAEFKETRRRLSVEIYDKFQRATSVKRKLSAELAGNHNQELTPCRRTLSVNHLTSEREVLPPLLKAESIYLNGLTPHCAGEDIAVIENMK
- Protocol text: TEVC of chimera TRAAK/EK-1 M3-C
- Condition context: Xenopus oocytes
Property: EC50 (µM)
# output: bare number, implied unit µM

Task item: Fill in: EC50 of CS(=O)(=O)Nc1ccc(C(=O)NCc2ccc(Cl)cc2Cl)cc1 is ___
Reply: 13

Task item: Please do the same for c1ccc(-c2nnn[nH]2)c(Nc2cccc3c2CCCC3)c1 as well.
Reply: 18

Task item: Also check CC1(C)c2cc(Cl)ccc2N(CCc2nn[nH]n2)c2ccc(Cl)cc21
Reply: 44

---

- Experimental system: K2P2.1(TREK-1) F185L (Mus musculus, UniProt P97438, F200L)
- Construct: expressed in transfected cells; host or cells: Xenopus laevis oocytes, mRNA injected
- Protocol text: TEVC of K2P2.1(TREK-1) mutant F185L
- Format: cell-based
- Condition context: Xenopus oocytes
Property: pEC50
Note: pEC50 values are expressed as the negative base-10 logarithm of concentration in M.

Task item: State the recorded pEC50 for this entry: c1ccc(-c2nnn[nH]2)c(Nc2cccc3c2CCCC3)c1 [BL-1249]
Reply: 4.57

---

- Experimental system: K2P2.1(TREK-1) (Mus musculus, UniProt P97438)
- Protocol text: TEVC of K2P2.1(TREK-1) in Xenopus oocytes
- Type: cell-based
- Design: expressed in transfected cells; host or cells: Xenopus laevis oocytes injected with mRNA made from pGEMHE/pMO
- Condition context: EC50 estimated imposing an upper boundary of 20 (fold activation, I/I0)
Property: EC50 (µM)
Hi! Could you send only the number? It should be in µM, unit omitted.

Task item: Name the recorded EC50 for O=C(O)c1ccccc1Nc1cccc2c1CCCC2 .
Reply: 44

---

- Experimental system: TRAAK/EK-1_T (Mus musculus)
- Sequence (O88454 1-255 limits assumed): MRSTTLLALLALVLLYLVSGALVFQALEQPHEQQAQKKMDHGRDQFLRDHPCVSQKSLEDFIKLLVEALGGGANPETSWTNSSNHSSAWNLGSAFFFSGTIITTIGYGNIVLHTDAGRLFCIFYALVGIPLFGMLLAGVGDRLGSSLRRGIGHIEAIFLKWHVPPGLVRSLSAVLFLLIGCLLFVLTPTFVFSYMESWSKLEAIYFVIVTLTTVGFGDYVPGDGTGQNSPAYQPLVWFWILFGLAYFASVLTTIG
- Protocol text: TEVC of C-terminal tail swap chimera TRAAK/EK-1_T
- Condition context: Xenopus oocytes
Property: pEC50
Interpret pEC50 as the negative base-10 log of the concentration measured in mol/L.

Task item: Record request: pEC50 value, item c1ccc(-c2nnn[nH]2)c(Nc2cccc3c2CCCC3)c1
Reply: 4.64

---

- Experimental system: K2P2.1(TREK-1) F172M (Mus musculus, UniProt P97438, F187M)
- Construct: expressed in transfected cells; host or cells: Xenopus laevis oocytes, mRNA injected
- Protocol text: TEVC of K2P2.1(TREK-1) mutant F172M
- Assay type: cell-based
- Condition context: Xenopus oocytes
Property: EC50 (µM)
Response body: numeric value in µM, unit text excluded.

Task item: Quick one: EC50 of c1ccc(-c2nnn[nH]2)c(Nc2cccc3c2CCCC3)c1 ?
Reply: 15

---

I'd be grateful if you could share measured pEC50 for these entries.
- Experimental system: TRAAK/EK-1 M2-C (Mus musculus, UniProt O88454+P97438, A151S/D143N/F160Y/H141A/P165L/Q138H/R166H/S147A/S164V/V139S/V154I)
- Construct: Thr114 (TRAAK/EK-1 M2-C); chimera built by Gibson assembly
- Sequence (O88454+P97438 fused with the stated changes): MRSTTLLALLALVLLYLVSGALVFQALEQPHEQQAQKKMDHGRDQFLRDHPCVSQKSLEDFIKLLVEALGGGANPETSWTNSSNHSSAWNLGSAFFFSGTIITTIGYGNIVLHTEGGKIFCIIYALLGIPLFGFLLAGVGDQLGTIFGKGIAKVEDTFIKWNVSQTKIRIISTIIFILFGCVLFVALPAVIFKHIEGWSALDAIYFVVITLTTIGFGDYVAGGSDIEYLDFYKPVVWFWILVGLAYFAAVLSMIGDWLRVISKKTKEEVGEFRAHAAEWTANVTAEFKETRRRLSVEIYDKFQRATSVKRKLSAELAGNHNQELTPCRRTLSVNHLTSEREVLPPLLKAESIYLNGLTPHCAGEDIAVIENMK
- Protocol text: TEVC of chimera TRAAK/EK-1 M2-C
- Condition context: Xenopus oocytes
Give only the number. pEC50 is defined as minus log10 of concentration in molar units.

Task item: Dear colleague, I am looking for the recorded pEC50 of the following molecule: CC1(C)c2cc(Cl)ccc2N(CCc2nn[nH]n2)c2ccc(Cl)cc21
Reply: 4.48

Task item: And what about the molecule CS(=O)(=O)Nc1ccc(C(=O)NCc2ccc(Cl)cc2Cl)cc1 ?
Reply: 5.10

Task item: # iterate: c1ccc(-c2nnn[nH]2)c(Nc2cccc3c2CCCC3)c1
Reply: 4.55

---

I'd appreciate it if you could supply EC50 values for the items below.
- Experimental system: K2P4.1(TRAAK) (Mus musculus, UniProt O88454)
- Construct: expressed in transfected cells; host or cells: Xenopus laevis oocytes injected with mRNA made from pGEMHE/pMO
- Sequence (O88454 whole entry): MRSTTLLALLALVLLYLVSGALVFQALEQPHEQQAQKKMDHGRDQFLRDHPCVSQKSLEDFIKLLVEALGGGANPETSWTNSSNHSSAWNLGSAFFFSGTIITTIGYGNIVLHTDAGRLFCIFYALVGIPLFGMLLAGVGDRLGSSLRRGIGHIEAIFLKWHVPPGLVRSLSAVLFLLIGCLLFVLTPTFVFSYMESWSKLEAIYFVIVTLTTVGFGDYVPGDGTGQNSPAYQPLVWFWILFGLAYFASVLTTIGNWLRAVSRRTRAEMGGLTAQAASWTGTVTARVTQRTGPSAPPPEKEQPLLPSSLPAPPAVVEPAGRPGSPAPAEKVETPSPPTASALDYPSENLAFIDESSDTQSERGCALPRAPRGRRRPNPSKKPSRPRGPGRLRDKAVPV
- Protocol text: TEVC of K2P4.1(TRAAK) in Xenopus oocytes
- Assay type: cell-based
- Condition context: I/I0 at 0 mV

Task item: Quick one: EC50 for O=C(O)c1ccccc1Nc1cccc2c1CCCC2 [BL-1249-acid] ?
Reply: > 200 µM

Task item: Same for NC(=O)c1ccccc1Nc1cccc2c1CCCC2 [BL-1249-amide]
Reply: > 200 µM

Task item: Moving on to c1ccc(Nc2ccccc2-c2nnn[nH]2)cc1 [BL-1249-Ph]
Reply: > 200 µM

Task item: Also c1ccc2c(c1)Nc1c(-c3nnn[nH]3)cccc1C21CCCCC1 [BL-1249-tricycle] ?
Reply: 42 µM

---

- Experimental system: K2P2.1(TREK-1) W275S (Mus musculus, UniProt P97438, W290S)
- Sequence (P97438 1-411 isoform P97438-2 W275S): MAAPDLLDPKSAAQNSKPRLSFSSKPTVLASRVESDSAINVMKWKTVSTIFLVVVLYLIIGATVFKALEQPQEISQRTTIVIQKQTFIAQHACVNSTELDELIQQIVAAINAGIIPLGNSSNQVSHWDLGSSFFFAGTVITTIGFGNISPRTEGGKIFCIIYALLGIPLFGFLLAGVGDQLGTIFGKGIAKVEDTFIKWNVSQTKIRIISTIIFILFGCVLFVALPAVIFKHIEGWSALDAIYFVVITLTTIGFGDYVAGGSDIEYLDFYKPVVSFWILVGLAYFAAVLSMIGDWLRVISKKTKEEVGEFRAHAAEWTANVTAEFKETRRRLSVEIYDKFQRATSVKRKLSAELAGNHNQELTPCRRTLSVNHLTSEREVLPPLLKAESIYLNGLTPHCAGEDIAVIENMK
- Protocol text: TEVC of C-type gate activating mutant W275S
- Condition context: Xenopus oocytes
- Excerpt: Diverse types of physical and chemical stimuli activate K2P2.1(TREK-1) by stabilizing the C-type gate and switching the channel into a “leak” mode that is characterized by a loss of outward rectification of the potassium current.[6],[8] Accordingly, we used inside-out patch clamp experiments of K2P2.1(TREK-1) expressed in HEK293 cells to test whether BL-1249 acts on the C-type gate. […]
pEC50: −log10 of the molar value.
Property: pEC50

Task item: Find the recorded pEC50 belonging to c1ccc(-c2nnn[nH]2)c(Nc2cccc3c2CCCC3)c1 [BL-1249] and report it.
Reply: < 4.22

---

- Experimental system: TREK-1/AAK_T (Mus musculus, UniProt P97438)
- Sequence (P97438 1-292 isoform P97438-2 limits assumed): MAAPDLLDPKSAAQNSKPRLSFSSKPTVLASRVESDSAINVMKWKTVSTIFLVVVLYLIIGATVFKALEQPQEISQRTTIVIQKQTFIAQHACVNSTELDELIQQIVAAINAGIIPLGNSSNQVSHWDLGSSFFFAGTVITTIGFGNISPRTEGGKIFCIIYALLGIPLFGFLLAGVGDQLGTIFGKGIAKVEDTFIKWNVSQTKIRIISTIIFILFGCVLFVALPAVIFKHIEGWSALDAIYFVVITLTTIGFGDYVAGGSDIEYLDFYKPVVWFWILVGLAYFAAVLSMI
- Protocol text: TEVC of C-terminal tail swap chimera TREK-1/AAK_T
- Condition context: Xenopus oocytes
Property: EC50 (µM)
Please state the figure in µM; there is no need to write the unit.

Task item: Param readout= EC50; system= TREK-1/AAK_T (Mus musculus, UniProt P97438); entry= c1ccc(-c2nnn[nH]2)c(Nc2cccc3c2CCCC3)c1 ; returns value.
Reply: 7.7

Where do these numbers come from? They come from paper PMC6302903.
